System: U87MG tumour cells
assay protocol: Test of in vitro proliferation of U87MG tumour cells
Format: cell-based
run conditions: Homo sapiens, U-87 MG, 72 h, read-out: U87 Cell Proliferation IC50, nM
value type: IC50 (nM)
Kindly provide the numeric value in nM only, without the unit symbol.

Input line: Identify measured IC50 corresponding to CCN1CC(C)(C)Oc2nc(N3CCOC[C@@H]3C)nc(-c3ccc(NC(=O)Oc4cccc(OC)c4)cc3)c2C1=O [Example 193]
Output line: 4660

----------
Could you please report measured pIC50 for the items listed next?
target system: mTOR (human recombinant aa mTOR 1360-2549) (Homo sapiens (Human))
Sequence (P42345 1360-2549): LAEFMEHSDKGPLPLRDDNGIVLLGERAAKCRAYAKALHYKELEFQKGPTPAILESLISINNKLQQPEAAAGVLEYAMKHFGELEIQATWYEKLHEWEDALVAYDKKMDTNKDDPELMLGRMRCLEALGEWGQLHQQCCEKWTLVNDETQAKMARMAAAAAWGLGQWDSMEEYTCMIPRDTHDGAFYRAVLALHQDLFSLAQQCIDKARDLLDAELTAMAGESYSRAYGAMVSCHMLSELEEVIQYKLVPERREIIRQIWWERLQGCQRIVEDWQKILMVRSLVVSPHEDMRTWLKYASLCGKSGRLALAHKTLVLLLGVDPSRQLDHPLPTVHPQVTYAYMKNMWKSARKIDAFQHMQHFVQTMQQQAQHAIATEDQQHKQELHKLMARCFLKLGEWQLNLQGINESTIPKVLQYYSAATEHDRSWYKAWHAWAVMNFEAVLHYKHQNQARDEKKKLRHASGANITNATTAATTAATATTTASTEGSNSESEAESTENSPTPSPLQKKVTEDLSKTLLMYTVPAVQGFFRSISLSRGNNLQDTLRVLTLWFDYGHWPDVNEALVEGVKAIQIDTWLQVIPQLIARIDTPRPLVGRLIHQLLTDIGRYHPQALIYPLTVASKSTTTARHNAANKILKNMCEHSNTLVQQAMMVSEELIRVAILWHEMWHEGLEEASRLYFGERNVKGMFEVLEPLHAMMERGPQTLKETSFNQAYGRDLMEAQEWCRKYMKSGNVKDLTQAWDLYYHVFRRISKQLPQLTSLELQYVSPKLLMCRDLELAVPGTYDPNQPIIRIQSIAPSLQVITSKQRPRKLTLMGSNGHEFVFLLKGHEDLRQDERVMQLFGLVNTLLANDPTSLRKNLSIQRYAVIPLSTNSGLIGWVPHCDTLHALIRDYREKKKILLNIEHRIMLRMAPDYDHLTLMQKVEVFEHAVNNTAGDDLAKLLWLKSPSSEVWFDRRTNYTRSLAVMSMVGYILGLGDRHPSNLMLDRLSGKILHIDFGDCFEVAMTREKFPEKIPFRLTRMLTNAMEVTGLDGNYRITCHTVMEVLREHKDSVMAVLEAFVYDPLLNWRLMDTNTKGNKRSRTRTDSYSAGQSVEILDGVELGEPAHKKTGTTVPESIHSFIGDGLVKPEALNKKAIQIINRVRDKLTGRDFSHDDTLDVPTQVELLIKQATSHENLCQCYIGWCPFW
assay protocol: mTOR enzymatic test by TR-FRET (phosphorylation of GFP-4EBP1)
Keep it numeric: pIC50 is minus log10 of the concentration in mol/L.

Input line: Assign pIC50 to the following record: CCN1CC(C)(C)Oc2nc(N3CCOC[C@@H]3C)nc(-c3ccc(NC(=O)Nc4ccc(C)nc4)c(F)c3)c2C1=O
Output line: 7.42

Input line: Fill in reported pIC50 for this entry: C[C@H]1COCCN1c1nc2c(c(-c3ccc(NC(=O)Nc4ccon4)c(F)c3)n1)C(=O)N(C1CCOCC1)CC(C)(C)O2
Output line: 7.57

Input line: Return reported pIC50. Input compound: CCN1CC(C)(C)Oc2nc(N3CC4CCC(C3)O4)nc(-c3ccc(NC(=O)Nc4ccnc(N5CCN(S(C)(=O)=O)CC5)c4)c(F)c3)c2C1=O
Output line: 7.14

Input line: Specify measured pIC50 for CCN1CC(C)(C)Oc2nc(N3CC4CCC(C3)O4)nc(-c3ccc(NC(=O)NCC4CCN(C)CC4)c(F)c3)c2C1=O .
Output line: 5.67

Input line: Output pIC50 of CCNC(=O)Nc1ccc(-c2nc(N3CCOCC3)nc3c2C(=O)N(CC)CCO3)cc1
Output line: 6.10

Input line: Assign pIC50 to the following record: CCN1CC(C)(C)Oc2nc(N3CCOC[C@@H]3C)nc(-c3ccc(NC(=O)Nc4ccc(N5CC6CCC(C5)O6)nc4)c(F)c3)c2C1=O
Output line: 7.28

Input line: Please give the documented pIC50 of CCN1CC(C)(C)Oc2nc(N3CC4CCC(C3)O4)nc(-c3ccc(NC(=O)NC4COC4)c(F)c3)c2C1=O
Output line: 7.54

Input line: Specify reported pIC50 for the compound shown: CCN1CC(C)(C)Oc2nc(N3CC4CCC(C3)O4)nc(-c3ccc(NC(=O)Nc4ccc(N5CC6CCC(C5)O6)cn4)cc3)c2C1=O
Output line: 7.19

Input line: Dear colleague, please send me the reported pIC50 for CCN1CC(C)(C)Oc2nc(N3CC4CCC(C3)O4)nc(-c3ccc(NC(=O)OC[C@@H](C)O)c(F)c3)c2C1=O when you can.
Output line: 5.97

Input line: Using the record for CCN1CC(C)(C)Oc2nc(N3CCOC[C@@H]3C)nc(-c3ccc(NC(=O)Nc4ccc(N5CCOCC5(C)C)nc4)c(F)c3)c2C1=O , state its measured pIC50.
Output line: 6.71

Input line: Note pIC50 for the compound shown: CCN1CC(C)(C)Oc2nc(N3CC4CCC(C3)O4)nc(-c3ccc(NC(=O)Nc4ccc(N5CCOCC5)nc4)c(F)c3)c2C1=O
Output line: 7.28

Input line: Identify measured pIC50 associated with CN1CC(C)(C)Oc2nc(N3CC4CCC(C3)O4)nc(-c3ccc(NC(=O)Nc4ccncc4)cc3)c2C1=O
Output line: 8.22

Input line: // fetch pIC50 given entry COc1ccnc(NC(=O)Nc2ccc(-c3nc(N4CC5CCC(C4)O5)nc4c3C(=O)N(C)CC(C)(C)O4)cc2)c1
Output line: 7.82

Input line: Supply reported pIC50 belonging to this compound: CCN1CC(C)(C)Oc2nc(N3CC4CCC(C3)O4)nc(-c3ccc(NC(=O)NCCOC)c(F)c3)c2C1=O
Output line: 6.42
